testedOn: recombinant eIF4E (Homo sapiens (Human))
measurementDescription: Fluorescence polarization competition assay for eIF4E binding potency
conditionsUsed: fluorescence polarization competition, 75 nM recombinant eIF4E, 20 nM EDA-m7GDP-ATTO-550; IC50 class; read-out: elF4E FP
pIC50: −log10 of the molar value.
measuredQuantity: pIC50

Cc1nc2cc(C(F)(F)F)cc(C#N)c2c(=O)n1CCOc1ccc(Cl)cc1-c1ccnc(C(=O)O)c1; > 7.30
Cc1cc(-c2cc(Cl)ccc2OCCn2c(C)nc3c(C)nc(-c4cccc(C(F)(F)F)c4)c(C#N)c3c2=O)c2scc(C(=O)O)c2n1; > 7.30
Cc1cc(-c2cc(Cl)ccc2OCCn2c(C)nc3cc(C(F)(F)F)c(N4CCC(C)CC4)nc3c2=O)c2scc(C(=O)O)c2n1; > 7.30
O=C(O)c1cccc(-c2cc(Cl)ccc2OCCn2cnc3cccc(F)c3c2=O)c1; < 6.00
Cc1nc2cc(C(F)(F)F)cc(C#N)c2c(=O)n1CCOc1ccc(Cl)cc1-c1ccnc2c(C(=O)O)c(Cl)sc12; > 7.30

Please give pIC50 for each item listed below.
1. Cc1nc2cc(Cl)c(OC(F)(F)F)c(C#N)c2c(=O)n1CCOc1ccc(Cl)cc1-c1ccnc2c(C(=O)O)csc12
2. Cc1nc2c(-c3cncnc3)ccc(C#N)c2c(=O)n1CCOc1ccc(Cl)cc1-c1ccnc2c(C(=O)O)csc12
3. Cc1nc2cnc(N(C)C3CCN(C4(C(F)F)COC4)CC3)c(C#N)c2c(=O)n1CC#Cc1ccc(Cl)cc1-c1ccnc2c(C(=O)O)csc12
4. Cc1nc2cnc(N(C)C3CCN(C4CC(F)(F)C4)CC3)c(C#N)c2c(=O)n1CC#Cc1ccc(Cl)cc1-c1ccnc2c(C(=O)NS(C)(=O)=O)csc12 [compound 1188]
5. N#Cc1cc2c(=O)n(CCOc3ccc(Cl)cc3-c3ccc(OC(F)F)c(C(=O)O)c3)cnc2cn1
6. Cc1cc(-c2cc(Cl)ccc2OCCn2c(C)nc3cnc(N4CC(C)(O)C4)c(C#N)c3c2=O)c2scc(C(=O)O)c2n1
7. Cc1nc2cnc(N3CCN(C)CC3)c(C#N)c2c(=O)n1CCOc1ccc(Cl)cc1-c1ccnc2c(C(=O)O)csc12

Result:
["6.00 to 7.30", "> 7.30", "> 7.30", "> 7.30", "6.00 to 7.30", "> 7.30", "> 7.30"]

Sample Cc1nc2c(F)cc(C(F)F)c(C#N)c2c(=O)n1CCOc1ccc(Cl)cc1-c1ccnc2c(-c3nnn[nH]3)csc12 ; pIC50 observed: 6.00 to 7.30

====

testedOn: recombinant eIF4E (Homo sapiens (Human))
measurementDescription: Fluorescence polarization competition assay for eIF4E binding potency
conditionsUsed: inhibition of eIF4E/EDA-m7GDP-ATTO-550 binding; calculated IC50 values, Table 4B; read-out: IC50
Field: IC50. Provide a value for each of the compounds that follow.
Answers are plain numbers, in nM.

COCCC(CCOC)N(C)c1ncc2nc(C)n(CC#Cc3ccc(Cl)cc3-c3ccnc4c(C(=O)O)csc34)c(=O)c2c1C#N; 13
Cc1nc(N2CCN(CC(F)F)CC2)c(C#N)c2c(=O)n(CCOc3ccc(Cl)cc3-c3ccnc4c(C(=O)O)csc34)c(C)nc12; 40.2
Cc1nc2cc(CN(C)CCF)c(OC(F)F)c(C#N)c2c(=O)n1CCOc1ccc(Cl)cc1-c1ccnc2c(C(=O)O)csc12; 10.6

Hi! Can you tell me IC50 for each of these compounds?
1. Cc1nc2cnc(N3CCN(C4(C)CC(F)(F)C4)CC3)c(C#N)c2c(=O)n1CC#Cc1ccc(Cl)cc1-c1ccnc2c(C(=O)O)csc12
2. Cc1nc2cnc(N(C)C3CCN(C4(CF)CC4)CC3)c(C#N)c2c(=O)n1CC#Cc1ccc(Cl)cc1-c1ccnc2c(C(=O)O)csc12
3. Cc1nc2cc(C(F)(F)F)c(N3CC4(C3)CN(C3CC3)C4)c(C#N)c2c(=O)n1CCOc1ccc(Cl)cc1-c1ccnc2c(C(=O)NS(C)(=O)=O)csc12
4. CCN(c1ncc2nc(C)n(CC#Cc3ccc(Cl)cc3-c3ccnc4c(C(=O)NS(=O)(=O)C(C)(C)C)csc34)c(=O)c2c1C#N)C1CCN(C2COC2)CC1
5. CC(=O)CN1CCC(N(C)c2ncc3nc(C)n(CC#Cc4ccc(Cl)cc4-c4ccnc5c(C(=O)O)csc45)c(=O)c3c2C#N)CC1
6. CCN(c1ncc2nc(C)n(CC#Cc3ccc(Cl)cc3-c3ccnc4c(C(=O)NS(C)(=O)=O)csc34)c(=O)c2c1C#N)C1CCN(C2CC(F)(F)C2)CC1

Result:
1: 6.83; 2: 20.1; 3: 4.81; 4: 16.5; 5: 15.3; 6: 8.05

For every item in the list below, what is its measured IC50?
1. Cc1nc2cnc(N(C)C3CCN(C4CC(F)(F)C4)CC3)c(C#N)c2c(=O)n1CCOc1ccc(Cl)cc1-c1ccnc2c(C(=O)O)csc12
2. Cc1nc2cnc(N3CCN(C)C(C(F)(F)F)C3)c(C#N)c2c(=O)n1CCOc1ccc(Cl)cc1-c1ccnc2c(C(=O)O)csc12 (centres unmarked)
3. Cc1cc(-c2cc(Cl)ccc2OCCn2c(C)nc3cc(C(F)(F)F)c(N4CCN(C)CC4)c(C#N)c3c2=O)c(C)c(C(=O)O)n1
4. Cc1cc(-c2cc(Cl)ccc2OCCn2c(C)nc3cnc(-c4ccc(C)c(O)c4)c(C#N)c3c2=O)c2scc(C(=O)O)c2n1

Result:
18.1
51.3
6.63
12.8

Give measured IC50 for every item shown.
1. Cc1nc2cnc(N3CCN(CC4(F)CC4)CC3)c(C#N)c2c(=O)n1CCOc1ccc(Cl)cc1-c1ccnc2c(C(=O)O)csc12
2. Cc1cc(-c2cc(Cl)ccc2OCCn2c(C)nc3cc(C(F)(F)F)c(-c4ccc(F)cn4)c(C#N)c3c2=O)c2scc(C(=O)O)c2n1
3. Cc1cc(-c2cc(Cl)ccc2OCCn2c(C)nc3c(C)nc(-c4c(F)cccc4F)c(C#N)c3c2=O)c2scc(C(=O)O)c2n1
4. Cc1nc2cnc(N3CCC4(CC3)CN(CC(C)(F)F)C4)c(C#N)c2c(=O)n1CC#Cc1ccc(Cl)cc1-c1ccnc2c(C(=O)NS(=O)(=O)c3cccnc3)csc12
5. Cc1nc2cnc(N3CCC(N(CC(F)F)C4COC4)CC3)c(C#N)c2c(=O)n1CC#Cc1ccc(Cl)cc1-c1ccnc2c(C(=O)O)csc12
6. Cc1nc2cnc(N(C)C3CCN(C(C)(C)CF)CC3)c(C#N)c2c(=O)n1CCOc1ccc(Cl)cc1-c1ccnc2c(C(=O)O)csc12
7. Cc1nc2cnc(/C=C/CN(C)CC(F)(F)F)c(C#N)c2c(=O)n1CCOc1ccc(Cl)cc1-c1ccnc2c(C(=O)O)csc12

Result:
1. 30.8
2. 7.96
3. 17.3
4. 6.71
5. 12.9
6. 17.8
7. 61.3

====

Provide the recorded pIC50 for the entries that follow.
testedOn: recombinant eIF4E (Homo sapiens (Human), UniProt P06730)
Sequence (P06730 whole entry): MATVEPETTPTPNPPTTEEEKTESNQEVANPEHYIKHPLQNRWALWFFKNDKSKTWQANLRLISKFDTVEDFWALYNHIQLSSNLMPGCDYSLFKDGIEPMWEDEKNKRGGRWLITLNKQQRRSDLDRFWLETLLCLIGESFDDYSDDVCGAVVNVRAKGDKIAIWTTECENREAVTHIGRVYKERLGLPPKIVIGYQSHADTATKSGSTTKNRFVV
measurementDescription: Fluorescence polarization competition assay for eIF4E binding potency
conditionsUsed: inhibition of eIF4E/EDA-m7GDP-ATTO-550 binding; calculated IC50 values, Table 4B; read-out: IC50
Answers are plain numbers, as −log10 of the molar value.

Recorded pIC50, per entry:
Cc1cc(-c2cc(Cl)ccc2OCCn2c(C)nc3c(C)nc(CN(C)C)cc3c2=O)c2scc(C(=O)O)c2n1; 7.33
Cc1nc2cc(C(F)(F)F)cc(C#N)c2c(=O)n1CCOc1ccc(Cl)cc1-c1cc(CCN)nc2c(C(=O)O)csc12; 7.25
Cc1nc2cc(C(F)(F)F)c(N3CCN(C4CC4)CC3)c(C#N)c2c(=O)n1CCOc1ccc(Cl)cc1-c1ccnc2c(P(=O)(O)O)csc12; 7.83
Cc1nc2cnc(N(C)C3CCN(C(C)CF)CC3)c(C#N)c2c(=O)n1CC#Cc1ccc(Cl)cc1-c1ccnc2c(C(=O)O)csc12 (stereo not drawn); 7.76
CCN(c1ncc2nc(C)n(CC#Cc3ccc(Cl)cc3-c3ccnc4c(C(=O)NS(=O)(=O)CC(C)(C)C#N)csc34)c(=O)c2c1C#N)C1CCN(C2COC2)CC1; 7.84

Reported pIC50 of Cc1nc2cnc(N(C)C3CCOCC3)c(C#N)c2c(=O)n1CC#Cc1ccc(Cl)cc1-c1ccnc2c(C(=O)O)csc12 : 8.20

====

testedOn: recombinant eIF4E (Homo sapiens (Human), UniProt P06730)
measurementDescription: Fluorescence polarization competition assay for eIF4E binding potency
conditionsUsed: inhibition of eIF4E/EDA-m7GDP-ATTO-550 binding; calculated IC50 values, Table 4B; read-out: IC50
measuredQuantity: IC50 (nM)
Answers are plain numbers, in nM.

Cc1nc2cnc(N(C)C3CCN(CC(C)(F)F)CC3)c(C(N)=O)c2c(=O)n1CC#Cc1ccc(Cl)cc1-c1ccnc2c(C(=O)O)csc12; 211
CCOP(=O)(OCC)c1csc2c(-c3cc(Cl)ccc3OCCn3c(C)nc4cc(C(F)(F)F)c(N5CCN(C6CC6)CC5)c(C#N)c4c3=O)ccnc12; 31.4
Cc1nc2cnc(N(C)C3CCN(CC(F)(F)F)CC3)c(C#N)c2c(=O)n1CC#Cc1ccc(Cl)cc1-c1ccnc2c(C(=O)NS(=O)(=O)CC#N)csc12; 5.68
CCN(c1ncc2nc(C)n(CCOc3ccc(Cl)cc3-c3ccnc4c(C(=O)O)csc34)c(=O)c2c1C#N)C1CCN(CC(F)F)CC1; 27.4
COC(=O)c1csc2c(-c3cc(Cl)ccc3C#CCn3c(C)nc4cnc(N5CCN(CCOC(F)(F)F)CC5)c(C#N)c4c3=O)ccnc12; 631
Cc1nc2cncc(C#N)c2c(=O)n1CCOc1ccc(Cl)cc1-c1cccc(C(=O)O)c1; 36.4
Cc1nc2cc(C(F)(F)F)c(N3CCN(C)CC3)cc2c(=O)n1CCOc1ccc(Cl)cc1-c1ccnc2c(C(=O)NS(C)(=O)=O)csc12; 32.1
Cc1ccccc1S(=O)(=O)NC(=O)c1csc2c(-c3cc(Cl)ccc3C#CCn3c(C)nc4cnc(N(C)C5CCN(CC(F)(F)F)CC5)c(C#N)c4c3=O)ccnc12; 26.2
Cc1cc(-c2cc(Cl)ccc2OCCn2c(C)nc3cc(C(F)(F)F)c(-c4ccnc5c4CCN5)c(C#N)c3c2=O)c2scc(C(=O)O)c2n1; 48.8
Cc1nc2cnc(N3CC4(C3)CN(C3CC(F)(F)C3)C4)c(C#N)c2c(=O)n1CCOc1ccc(Cl)cc1-c1ccnc2c(C(=O)O)csc12; 7.2

Value sought for every listed compound: IC50.
1. Cc1nc2c(F)cc(C(F)F)c(C#N)c2c(=O)n1CCOc1ccc(Cl)cc1-c1ccnc2c(C(=O)O)csc12
2. Cc1nc2cnc(N(C)C3CCN(C4(C(F)F)CC4)CC3)c(C#N)c2c(=O)n1CCOc1ccc(Cl)cc1-c1ccnc2c(C(=O)O)csc12
3. CCC#Cc1c(C(=O)O)cccc1-c1cc(Cl)ccc1OCCn1c(C(F)F)nc2cccc(C#N)c2c1=O
4. Cc1nc2cnc(N3CCN(C)C4CC43)c(C#N)c2c(=O)n1C/C=C/c1ccc(Cl)cc1-c1ccnc2c(C(=O)O)csc12 (stereo not shown)
5. N#Cc1ccc(F)c2nc(C(F)F)n(CCOc3ccc(Cl)cc3-c3ccnc4c(C(=O)O)csc34)c(=O)c12
6. Cc1nc2cnc(N(C)[C@H]3[C@@H]4CC[C@H]3CN(CC(C)(F)F)C4)c(C#N)c2c(=O)n1CC#Cc1ccc(Cl)cc1-c1ccnc2c(C(=O)O)csc12
7. Cc1nc2cnc(NC3CCCCC3)cc2c(=O)n1CCOc1ccc(Cl)cc1-c1cccc(C(=O)O)c1

Result:
[24.9, 22.8, 1290, 41.4, 61.6, 27.4, 264]
